Below is a list of entries, each paired with its recorded IC50 value.
- experimental-system: JAK2 (Homo sapiens)
- Construct: endogenous in cells
- method: Kinobeads assay, JAK2
- condition-info: mixed Molt4/Ramos cell lysate, dot blot detection
- Experimental: The compounds of the present invention as described in the previous examples were tested in a Kinobeads™ assay as described for ZAP-70 (WO-A 2007/137867). […] Bound proteins were then eluted and the presence of JAK2 and JAK3 was detected and quantified using specific antibodies in a dot blot procedure and the Odyssey infrared detection system. Dose response curves for individual kinases were generated and IC50 values calculated. […]

- COc1nn(CCO)cc1Nc1ncc2cnn(Cc3ccccc3C#N)c2n1: 1 to 10 µM
- Cn1cc(Nc2ncc3cnn(Cc4cccc5c4OCCO5)c3n2)cn1: 0.1 to 1 µM
- Cn1ccc(Nc2ncc3cnn(Cc4ccccc4F)c3n2)c1: 1 to 10 µM
- Fc1ccccc1Cn1ncc2cnc(Nc3cnn(CCN4CCNCC4)c3)nc21: 0.1 to 1 µM

Now for another entry.
Field IC50 (entry OCCn1cc(Nc2ncc3cnn(Cc4c(F)ccc(N5CCNCC5)c4F)c3n2)cn1 ) reads 1 to 10 µM

* * *

Below is a list of entries, each paired with its recorded IC50 value.
- experimental-system: JAK2 (Homo sapiens, UniProt O60674)
- Construct: endogenous in cells
- Sequence (O60674 whole entry): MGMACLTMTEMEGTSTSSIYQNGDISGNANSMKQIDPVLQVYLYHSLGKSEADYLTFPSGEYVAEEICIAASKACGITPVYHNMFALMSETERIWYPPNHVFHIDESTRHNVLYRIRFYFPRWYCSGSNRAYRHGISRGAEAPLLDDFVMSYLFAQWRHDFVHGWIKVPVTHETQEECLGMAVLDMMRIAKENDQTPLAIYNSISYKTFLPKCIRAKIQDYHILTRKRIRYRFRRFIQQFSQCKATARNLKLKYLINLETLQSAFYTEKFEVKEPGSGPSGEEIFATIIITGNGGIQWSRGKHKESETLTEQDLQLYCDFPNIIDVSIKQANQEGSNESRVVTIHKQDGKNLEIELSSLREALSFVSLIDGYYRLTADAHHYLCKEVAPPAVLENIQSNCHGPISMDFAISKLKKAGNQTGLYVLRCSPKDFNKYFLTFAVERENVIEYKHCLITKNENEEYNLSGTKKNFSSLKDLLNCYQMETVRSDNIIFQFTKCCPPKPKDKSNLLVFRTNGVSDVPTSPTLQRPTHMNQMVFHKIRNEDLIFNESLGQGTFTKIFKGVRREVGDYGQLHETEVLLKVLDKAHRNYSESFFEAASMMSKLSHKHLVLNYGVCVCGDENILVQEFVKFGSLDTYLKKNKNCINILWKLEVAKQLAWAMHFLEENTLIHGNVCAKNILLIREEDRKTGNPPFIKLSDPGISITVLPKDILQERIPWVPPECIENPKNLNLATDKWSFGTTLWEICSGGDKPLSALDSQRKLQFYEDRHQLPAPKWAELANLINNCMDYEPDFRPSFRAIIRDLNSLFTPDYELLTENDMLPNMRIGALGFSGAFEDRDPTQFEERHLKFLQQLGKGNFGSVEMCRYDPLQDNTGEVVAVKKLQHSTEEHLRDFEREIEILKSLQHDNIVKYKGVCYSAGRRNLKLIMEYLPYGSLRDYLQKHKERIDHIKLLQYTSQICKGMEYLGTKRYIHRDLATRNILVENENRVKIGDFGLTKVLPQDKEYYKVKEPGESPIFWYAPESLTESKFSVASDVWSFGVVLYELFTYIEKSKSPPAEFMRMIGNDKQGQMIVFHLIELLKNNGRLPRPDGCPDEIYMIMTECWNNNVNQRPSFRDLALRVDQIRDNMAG
- method: Kinobeads assay, JAK2
- condition-info: mixed Molt4/Ramos cell lysate, dot blot detection

Examples from the recorded data:
• COc1nn(CC(F)(F)F)cc1Nc1ncc2cnn(Cc3ccccc3C#N)c2n1 [Example 38] = ≥ 10 µM
• Cn1cc(Nc2ncc3cnn(CCc4ccccc4)c3n2)cn1 [Example 48] = 1 to 10 µM
• Cn1cc(Nc2ncc3cnn(Cc4ccccc4F)c3n2)cc1C(=O)NCCN1CCOCC1 [Example 243] = < 0.1 µM
• CCn1cc(Nc2ncc3cnn(Cc4ccccc4C#N)c3n2)cn1 [Example 11] = 1 to 10 µM
• Cn1cc(Nc2ncc3cnn(-c4ccc(F)cc4)c3n2)cn1 [Example 56] = 1 to 10 µM
• Cc1nc(-n2ncc3cnc(Nc4cnn(C)c4)nc32)ccc1NS(C)(=O)=O [Example 55] = 1 to 10 µM
• OCCn1cnc(Nc2ncc3cnn(Cc4ccccc4F)c3n2)c1 [Example 240] = 1 to 10 µM
• COc1nn(CCO)cc1Nc1ncc2cnn(Cc3ccccc3F)c2n1 [Example 49] = 1 to 10 µM
• Cn1cc(Nc2ncc3cnn(Cc4ccccc4)c3n2)cn1 [Example 76] = 1 to 10 µM
• OCCn1ccc(Nc2ncc3cnn(Cc4ccccc4F)c3n2)c1 [Example 247] = 0.1 to 1 µM

Field IC50 (entry Cn1cc(Nc2ncc3cnn(-c4ccc(S(=O)(=O)NCCO)cc4)c3n2)cn1 [Example 139] ) reads 1 to 10 µM

Field IC50 (entry Cn1cc(Nc2ncc3cnn(Cc4cccc(OC5CCOC5)c4)c3n2)cn1 (stereo not shown) [Example 181] ) reads ≥ 10 µM

Field IC50 (entry COc1nn(CCO)cc1Nc1ncc2cnn(Cc3cc(F)ccc3F)c2n1 [Example 51] ) reads 1 to 10 µM

* * *

- experimental-system: JAK2 (Homo sapiens)
- Construct: endogenous in cells
- method: Kinobeads assay, JAK2
- condition-info: mixed Molt4/Ramos cell lysate, dot blot detection
Below is a list of entries, each paired with its recorded IC50 value.

- COc1ccc(F)cc1Cn1ncc2cnc(Nc3cnn(C)c3)nc21 [Example 91]: 0.1 to 1 µM
- Cc1nn(CC(F)F)cc1Nc1ncc2cnn(Cc3cc(F)ccc3F)c2n1 [Example 150]: 1 to 10 µM
- Cn1cc(Nc2ncc3cnn(Cc4cc(F)ccc4F)c3n2)cn1 [Example 30]: < 0.1 µM

Field IC50 (entry COCCn1cc(Nc2ncc3cnn(Cc4ccccc4C#N)c3n2)cn1 [Example 10] ) reads 0.1 to 1 µM

Field IC50 (entry CCCn1cc(Nc2ncc3cnn(Cc4ccccc4C#N)c3n2)c(C)n1 [Example 21] ) reads ≥ 10 µM

Field IC50 (entry Cn1cc(Nc2ncc3cnn(Cc4cccc5ccccc45)c3n2)cn1 [Example 220] ) reads 1 to 10 µM

Field IC50 (entry CNC(=O)c1cc(Nc2ncc3cnn(Cc4ccccc4F)c3n2)c[nH]1 [Example 239] ) reads < 0.1 µM

Field IC50 (entry OCCn1cc(Nc2ncc3cnn(Cc4cccc(F)c4F)c3n2)cn1 [Example 33] ) reads 0.1 to 1 µM

Field IC50 (entry Cn1cc(Nc2ncc3cnn(Cc4ccccc4OC(F)(F)F)c3n2)cn1 [Example 85] ) reads 1 to 10 µM

* * *

- experimental-system: JAK3 (Homo sapiens, UniProt P52333)
- Construct: endogenous in cells
- Sequence (P52333 whole entry): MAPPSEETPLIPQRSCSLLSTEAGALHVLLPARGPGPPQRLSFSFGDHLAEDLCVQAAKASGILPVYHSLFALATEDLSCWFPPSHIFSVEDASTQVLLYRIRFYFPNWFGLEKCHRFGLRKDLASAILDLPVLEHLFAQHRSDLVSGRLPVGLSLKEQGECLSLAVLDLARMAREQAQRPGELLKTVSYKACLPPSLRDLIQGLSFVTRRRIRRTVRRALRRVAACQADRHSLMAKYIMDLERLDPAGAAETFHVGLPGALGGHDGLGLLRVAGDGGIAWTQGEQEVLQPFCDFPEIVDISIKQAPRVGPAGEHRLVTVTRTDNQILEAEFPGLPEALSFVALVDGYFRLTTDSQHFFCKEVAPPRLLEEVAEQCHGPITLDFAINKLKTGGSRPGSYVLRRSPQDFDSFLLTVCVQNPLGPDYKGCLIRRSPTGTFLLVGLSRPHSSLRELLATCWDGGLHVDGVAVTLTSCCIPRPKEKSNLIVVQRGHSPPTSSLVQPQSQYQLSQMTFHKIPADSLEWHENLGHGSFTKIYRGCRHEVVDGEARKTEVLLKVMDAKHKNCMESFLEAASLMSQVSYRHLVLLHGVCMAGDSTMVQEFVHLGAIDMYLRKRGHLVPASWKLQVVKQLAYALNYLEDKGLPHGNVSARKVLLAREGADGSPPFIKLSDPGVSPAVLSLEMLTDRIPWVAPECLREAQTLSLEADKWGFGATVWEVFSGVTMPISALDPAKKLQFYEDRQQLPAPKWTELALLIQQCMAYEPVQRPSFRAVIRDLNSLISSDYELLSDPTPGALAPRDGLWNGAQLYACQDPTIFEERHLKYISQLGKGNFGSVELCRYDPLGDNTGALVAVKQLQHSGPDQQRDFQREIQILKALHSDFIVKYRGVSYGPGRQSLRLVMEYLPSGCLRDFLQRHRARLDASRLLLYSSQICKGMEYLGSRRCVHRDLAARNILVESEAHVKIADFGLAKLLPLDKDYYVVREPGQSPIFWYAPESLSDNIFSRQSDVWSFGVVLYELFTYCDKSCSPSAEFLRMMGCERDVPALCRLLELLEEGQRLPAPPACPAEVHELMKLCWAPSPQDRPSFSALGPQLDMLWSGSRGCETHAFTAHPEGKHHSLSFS
- method: Kinobeads assay, JAK3
- condition-info: mixed Molt4/Ramos cell lysate, dot blot detection
pIC50: −log10 of the molar value.
property-name: pIC50

Examples from the recorded data:
* Cc1nn(CCO)cc1Nc1ncc2cnn(Cc3ccccc3)c2n1 | > 7.00
* OCCn1cnc(Nc2ncc3cnn(Cc4ccccc4F)c3n2)c1 | > 7.00
* Cn1cc(Nc2ncc3cnn(Cc4cccc(F)c4)c3n2)cn1 | > 7.00
* Cc1c(F)cccc1Cn1ncc2cnc(Nc3cnn(C)c3)nc21 | > 7.00
* N#Cc1ccccc1Cn1ncc2cnc(Nc3ccon3)nc21 | 5.00 to 6.00
* Cn1cc(Nc2ncc3cnn(Cc4cccc(OCC(N)=O)c4)c3n2)cn1 | > 7.00

Now for another entry.
Field pIC50 (entry OCCn1cc(Nc2ncc3cnn(Cc4c(F)c(F)cc(F)c4F)c3n2)cn1 ) reads > 7.00

* * *

Below is a list of entries, each paired with its recorded pIC50 value.
- experimental-system: JAK2 (Homo sapiens)
- Construct: endogenous in cells
- method: Kinobeads assay, JAK2
- condition-info: mixed Molt4/Ramos cell lysate, dot blot detection
pIC50: −log10 of the molar value.

* Cn1cc(Nc2ncc3cnn(Cc4ccccc4CO)c3n2)cn1 | 5.00 to 6.00
* COCCOc1cccc(Cn2ncc3cnc(Nc4cnn(C)c4)nc32)c1C | ≤ 5.00
* Cn1cc(Nc2ncc3cnn(Cc4cccc(OCCO)c4)c3n2)cn1 | 5.00 to 6.00

Field pIC50 (entry O=C(c1cccc(Cn2ncc3cnc(Nc4cnn(CCO)c4)nc32)c1F)N1CCOCC1 ) reads ≤ 5.00

Field pIC50 (entry Cn1cc(Nc2ncc3cnn(Cc4ccccc4C(=O)O)c3n2)cn1 ) reads 5.00 to 6.00

* * *

- experimental-system: JAK2 (Homo sapiens)
- Construct: endogenous in cells
- method: Kinobeads assay, JAK2
- condition-info: mixed Molt4/Ramos cell lysate, dot blot detection
property-name: IC50

* COCCOc1cccc(Cn2ncc3cnc(Nc4cnn(C)c4)nc32)c1 | ≥ 10 µM
* CN(c1ccc(-n2ncc3cnc(Nc4cnn(C)c4)nc32)cc1)S(C)(=O)=O | 0.1 to 1 µM

Field IC50 (entry Cn1cc(Nc2ncc3cnn(Cc4cccc(N5CCOCC5)c4)c3n2)cc1C(=O)N1CCOCC1 ) reads 1 to 10 µM

Field IC50 (entry Fc1ccccc1Cn1ncc2cnc(Nc3cnn(CCN4CCCCC4)c3)nc21 ) reads 1 to 10 µM

Field IC50 (entry Cc1cc(-n2ncc3cnc(Nc4cnn(C)c4)nc32)ccc1F ) reads 1 to 10 µM

Field IC50 (entry Cn1cc(Nc2ncc3cnn(Cc4ccccc4OCc4ccccc4)c3n2)cn1 ) reads ≥ 10 µM

Field IC50 (entry CN(C)C(=O)c1cc(Nc2ncc3cnn(Cc4ccccc4F)c3n2)cn1C ) reads 0.1 to 1 µM

Field IC50 (entry CNC(=O)Cn1cc(Nc2ncc3cnn(Cc4ccccc4F)c3n2)cn1 ) reads 0.1 to 1 µM

Field IC50 (entry Cn1cc(Nc2ncc3cnn(Cc4cccc(F)c4C#N)c3n2)cn1 ) reads 1 to 10 µM

Field IC50 (entry N#Cc1ccccc1Cn1ncc2cnc(Nc3cnn(CC(F)F)c3)nc21 ) reads 1 to 10 µM

Field IC50 (entry COCCOc1cccc(Cn2ncc3cnc(Nc4cnn(CC(F)F)c4)nc32)c1 ) reads ≥ 10 µM

* * *

- experimental-system: JAK2 (Homo sapiens, UniProt O60674)
- Construct: endogenous in cells
- method: Kinobeads assay, JAK2
- condition-info: mixed Molt4/Ramos cell lysate, dot blot detection
pIC50: −log10 of the molar value.
property-name: pIC50

Examples from the recorded data:
- COc1cc(-n2ncc3cnc(Nc4cnn(C)c4)nc32)ccc1F: ≤ 5.00
- COc1nn(CC(F)F)cc1Nc1ncc2cnn(Cc3cc(F)ccc3F)c2n1: 5.00 to 6.00

Field pIC50 (entry Cn1cc(Nc2ncc3cnn(Cc4cc(F)ccc4Cl)c3n2)cn1 ) reads > 7.00

Field pIC50 (entry Cn1cc(Nc2ncc3cnn(Cc4ccccc4F)c3n2)cn1 ) reads 5.00 to 6.00

Field pIC50 (entry Fc1ccccc1Cn1ncc2cnc(Nc3cnn(CCCN4CCOCC4)c3)nc21 ) reads 6.00 to 7.00

* * *

- experimental-system: JAK2 (Homo sapiens)
- Construct: endogenous in cells
- method: Kinobeads assay, JAK2
- condition-info: mixed Molt4/Ramos cell lysate, dot blot detection
property-name: IC50

- Cn1cc(Nc2ncc3cnn(-c4ccc(S(N)(=O)=O)c(F)c4)c3n2)cn1 [Example 138]: 1000 to 10000 nM
- OCCn1cc(Nc2ncc3cnn(Cc4ccccc4C4CC4)c3n2)cn1 [Example 260]: 1000 to 10000 nM
- CN(C)CCCn1cc(Nc2ncc3cnn(Cc4ccccc4F)c3n2)cn1 [Example 125]: 100 to 1000 nM
- OCCn1cc(Nc2ncc3cnn(Cc4c(F)ccc(F)c4F)c3n2)cn1 [Example 254]: 100 to 1000 nM
- Cn1cc(Nc2ncc3cnn(-c4ccc(S(C)(=O)=O)cc4)c3n2)cn1 [Example 61]: 1000 to 10000 nM
- N#Cc1ccccc1Cn1ncc2cnc(Nc3cnn(CC(=O)N4CCOCC4)c3)nc21 [Example 14]: 100 to 1000 nM
- Cn1cc(Nc2ncc3cnn(Cc4cc(F)cc(F)c4)c3n2)cn1 [Example 79]: 100 to 1000 nM
- O=C1CNCCN1c1ccc(F)c(Cn2ncc3cnc(Nc4cnn(CCO)c4)nc32)c1F [Example 302]: 1000 to 10000 nM

Now for another entry.
// assay JAK2 (Homo sapiens), entry Cn1cc(Nc2ncc3cnn(Cc4ccccc4OCCO)c3n2)cn1 [Example 168] , IC50 value = 1000 to 10000 nM
